Target: androgen receptor (AR) (Homo sapiens, UniProt P10275)
Sequence (P10275 whole entry): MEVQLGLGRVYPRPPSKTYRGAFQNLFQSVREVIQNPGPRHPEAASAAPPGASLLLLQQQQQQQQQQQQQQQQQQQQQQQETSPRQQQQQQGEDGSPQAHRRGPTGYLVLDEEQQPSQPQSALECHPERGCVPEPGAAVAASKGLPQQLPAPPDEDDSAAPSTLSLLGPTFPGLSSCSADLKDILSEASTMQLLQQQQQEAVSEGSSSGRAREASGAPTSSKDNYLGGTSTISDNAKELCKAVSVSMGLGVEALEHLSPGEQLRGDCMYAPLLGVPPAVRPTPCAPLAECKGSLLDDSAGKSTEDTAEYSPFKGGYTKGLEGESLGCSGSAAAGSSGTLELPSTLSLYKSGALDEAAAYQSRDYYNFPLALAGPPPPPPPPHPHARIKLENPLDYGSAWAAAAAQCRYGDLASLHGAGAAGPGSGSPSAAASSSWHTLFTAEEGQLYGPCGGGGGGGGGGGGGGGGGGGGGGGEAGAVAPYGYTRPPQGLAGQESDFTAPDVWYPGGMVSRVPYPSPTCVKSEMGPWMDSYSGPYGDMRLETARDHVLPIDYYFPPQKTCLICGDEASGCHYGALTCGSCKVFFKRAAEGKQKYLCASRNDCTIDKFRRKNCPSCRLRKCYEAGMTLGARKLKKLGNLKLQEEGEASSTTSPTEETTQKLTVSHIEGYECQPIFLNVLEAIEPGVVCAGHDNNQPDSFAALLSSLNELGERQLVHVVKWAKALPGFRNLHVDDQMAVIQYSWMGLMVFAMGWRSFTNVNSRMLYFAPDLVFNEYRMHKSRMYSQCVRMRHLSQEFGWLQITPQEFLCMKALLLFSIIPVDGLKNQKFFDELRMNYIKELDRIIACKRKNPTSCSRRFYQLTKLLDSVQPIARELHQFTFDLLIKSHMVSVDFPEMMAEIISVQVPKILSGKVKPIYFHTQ
Assay: Degradation of androgen receptor (AR) protein in VCaP cells by ELISA
Format: cell-based
Experimental conditions: VCaP
Observable: Dmax

Data point: COCCOc1cc(O[C@H]2CC[C@H](NC(=O)c3ccc(N4CCC(CN5CCC6(CC5)CN(c5ccc7c(c5)C(=O)N(C5CCC(=O)NC5=O)C7=O)C6)CC4)nn3)CC2)ccc1C#N (stereo partly shown) ; Dmax = > 80%

Data point: N#Cc1ccc(O[C@H]2CC[C@H](NC(=O)c3cnc(N4CCC(CN5CCC6(CC5)CN(c5ccc7c(c5)C(=O)N(C5CCC(=O)NC5=O)C7=O)C6)CC4)cn3)CC2)cc1Cl (stereo partly shown) ; Dmax = > 80%

Data point: Cc1cc(O[C@H]2C(C)(C)[C@H](N3Cc4nc(C#C[C@H]5CC[C@H](N6CCN(c7cc8c(cc7F)C(=O)N(C7CCC(=O)NC7=O)C8=O)CC6)CC5)ccc4C3=O)C2(C)C)ccc1C#N (stereo partly shown) ; Dmax = > 80%

Data point: N#Cc1ccc(O[C@H]2CC[C@H](NC(=O)c3ncc(N4CCC(CN5CCC6(CC5)CN(c5cc7c(cc5F)C(=O)N(C5CCC(=O)NC5=O)C7=O)C6)CC4)cn3)CC2)cc1Cl (stereo partly shown) ; Dmax = 40 to 60%

Data point: [2H]C([2H])([2H])Oc1cc(O[C@H]2CC[C@H](NC(=O)c3ccc(N4CCC(CN5CCC6(CC5)CN(c5ccc7c(c5)C(=O)N(C5CCC(=O)NC5=O)C7=O)C6)CC4)nn3)CC2)ccc1C#N (stereo partly shown) ; Dmax = > 80%

Data point: N#Cc1ccc(O[C@H]2CC[C@H](NC(=O)c3ncc(N4CCC(CN5CCC6(CC5)CN(c5ccc7c(c5)C(=O)N(C5CCC(=O)NC5=O)C7=O)C6)CC4)cn3)CC2)cc1Cl (stereo partly shown) ; Dmax = < 40%

Data point: N#Cc1ccc(O[C@H]2CC[C@H](NC(=O)c3nnc(N4CCC(N5CCC6(CC5)CN(c5cc7c(cc5F)C(=O)N(C5CCC(=O)NC5=O)C7=O)C6)CC4)s3)CC2)cc1Cl (stereo partly shown) ; Dmax = < 40%

Data point: N#Cc1ccc(O[C@H]2CC[C@H](NC(=O)c3ccc(N4CCN(C[C@@H]5[C@H]6CN(c7cc8c(cc7F)C(=O)N(C7CCC(=O)NC7=O)C8=O)C[C@@H]56)CC4)nn3)CC2)cc1Br (stereo partly shown) ; Dmax = > 80%

Data point: N#Cc1ccc(O[C@H]2CC[C@H](NC(=O)c3ccc(N4CCC(CN5CCC6(CC5)CN(c5ccc7c(c5)C(=O)N(C5CCC(=O)NC5=O)C7=O)C6)CC4)nn3)CC2)cc1C(F)(F)F (stereo partly shown) ; Dmax = > 80%

Data point: N#Cc1ccc(O[C@H]2CC[C@H](NC(=O)c3ccc(N4CCC(CN5CCC6(CC5)CN(c5ccc7c(c5)C(=O)N(C5CCC(=O)NC5=O)C7=O)C6)CC4)nn3)CC2)cc1Br (stereo partly shown) ; Dmax = > 80%

---

Target: androgen receptor (AR) (Homo sapiens, UniProt P10275)
Assay: Degradation of androgen receptor (AR) protein in VCaP cells by ELISA
Type: cell-based
Experimental conditions: AR degradation, VCaP cells, 16 h, ELISA, Table 3-1; read-out: DC50
Observable: DC50

Data point: N#Cc1ccc(O[C@H]2CC[C@H](NC(=O)c3cn([C@H]4CC[C@H](CN5CCC6(CC5)CN(c5cc7c(cc5F)C(=O)N(C5CCC(=O)NC5=O)C7=O)C6)CC4)nn3)CC2)cc1Cl (some centres unmarked) ; DC50 = < 10 nM

Data point: N#Cc1ccc(O[C@H]2CC[C@H](NC(=O)c3ncnn3[C@H]3CC[C@H](CN4CCC5(CC4)CN(c4ccc6c(c4)C(=O)N(C4CCC(=O)NC4=O)C6=O)C5)CC3)CC2)cc1Cl (some centres unmarked) ; DC50 = 100 to 300 nM

Data point: CC1(C)[C@H](Oc2ccc(C#N)c(Cl)c2)C(C)(C)[C@H]1N1Cc2nc(C#CC3CCC(N4CC5(CCN(c6ccc7c(c6)C(=O)N(C6CCC(=O)NC6=O)C7=O)CC5)C4)CC3)ccc2C1=O (some centres unmarked) [Compound 377] ; DC50 = < 10 nM

Data point: N#Cc1ccc(O[C@H]2CC[C@H](NC(=O)c3ccc(N4CCC(CN5CCC6(CC5)CN(c5ccc7c(c5)C(=O)N(C5CCC(=O)NC5=O)C7=O)C6)CC4)cc3)CC2)cc1Cl (some centres unmarked) ; DC50 = < 10 nM

Data point: N#Cc1ccc(O[C@H]2CC[C@H](NC(=O)c3cnc(N4CCC(CN5CCC6(C5)CN(c5cc7c(cc5F)C(=O)N(C5CCC(=O)NC5=O)C7=O)C6)CC4)cn3)CC2)cc1Cl (some centres unmarked) ; DC50 = < 10 nM
